test: Particle sizing assay of in vivo formulations (Zetasizer Nano ZS); format: physicochemical; conditions: in vivo formulation A: Cationic lipid/Example 58/DSPC/Chol 45/10/15/30 wt %, Lipid:siRNA 25:1
ENDPOINT_NAME: PDI (size distribution)

These solved cases illustrate the format of a correct answer.
| MOLECULE | PDI (size distribution) |
| --- | --- |
| CCCCC/C=C\C/C=C\CCCCCCCCOCC(COCCCCCCCC/C=C\C/C=C\CCCCC)NCCCN1CCCC1 [Example 6] | 0.145 |
| CCCCC/C=C\C/C=C\CCCCCCCCOCC(COCCCCCCCC/C=C\C/C=C\CCCCC)N1CCN(C)CC1 [Example 4] | 0.2 |
| CCCCC/C=C\C/C=C\CCCCCCCCOCC(COCCCCCCCC/C=C\C/C=C\CCCCC)NCCc1c[nH]cn1 [Example 9] | 0.13 |

1. CCCCC/C=C\C/C=C\CCCCCCCCOCC(COCCCCCCCC/C=C\C/C=C\CCCCC)NCCN(C)C [Example 7]
2. CCCCC/C=C\C/C=C\CCCCCCCCOCC(COCCCCCCCC/C=C\C/C=C\CCCCC)CN1CCN(C)CC1 [Example 23]
Pick the one with the larger PDI (size distribution): 1 vs 2 Mark your selection by writing its label.
1

The measured values listed here are drawn from patent US20100055168A1.
